test: Mean residence time in BCRP-knockout Sprague-Dawley rat at 2 mg/kg, iv; format: ADME, organism-based; set-up: dose 2 mg/kg, route intravenous; conditions: in vivo
quantity measured: MRT (h)
Kindly provide the numeric value in h only, without the unit symbol.

Qu. // query MRT value for entry COc1ccc(-n2nc(C(N)=O)c3c2[14C](=O)N(c2ccc(N4CCCCC4=O)cc2)CC3)cc1
Ans. 1.4

----------
experiment: Drug recovery in feces of Sprague-Dawley rat at 2 mg/kg, iv measured up to 168 hrs; assay type: ADME, organism-based; design: dose 2 mg/kg, route intravenous; details: read-out: Drug recovery
quantity measured: dose excreted at 168 h (%)
Write it as a number; the unit % goes unstated.

Qu. Fill blank: measured dose excreted at 168 h of the compound COc1ccc(-n2nc(C(N)=O)c3c2[14C](=O)N(c2ccc(N4CCCCC4=O)cc2)CC3)cc1 is ____.
Ans. 41.1

----------
assay: Mean residence time in BCRP-knockout Sprague-Dawley rat at 4 mg/kg, po; type: ADME, organism-based; design: dose 4 mg/kg, route oral; settings: in vivo
quantity measured: MRT (h)
Report the value in h with no unit label.

Qu. I'd like to know its MRT. The compound in question is COc1ccc(-n2nc(C(N)=O)c3c2C(=O)N(c2ccc(N4CCCCC4=O)cc2)CC3)cc1
Ans. 2.9

----------
assay: Drug recovery in urine of bile duct-cannulated beagle dog at 1 mg/kg, iv administered as 5 mins infusion followed by activated charcoal administration 10 to 420 mins post compound measured up to 72 hrs; format: ADME, organism-based, Canis lupus familiaris; set-up: dose 1 mg/kg, route intravenous; settings: read-out: Drug recovery
quantity measured: dose excreted (%)
The reply should be a number in %, with the unit left off.

Qu. Looking for the measured dose excreted of COc1ccc(-n2nc(C(N)=O)c3c2[14C](=O)N(c2ccc(N4CCCCC4=O)cc2)CC3)cc1 , can you help?
Ans. 8.1

----------
test: Drug recovery in bile of bile duct-cannulated Sprague-Dawley rat at 30 mg/kg, po measured up to 48 hrs; format: ADME, organism-based; parameters: dose 30 mg/kg, route oral; settings: read-out: Drug recovery
quantity measured: dose excreted at 48 h (%)
Just the number in %, nothing appended.

Qu. So what does the record say about dose excreted at 48 h for COc1ccc(-n2nc(C(N)=O)c3c2[14C](=O)N(c2ccc(N4CCCCC4=O)cc2)CC3)cc1 ?
Ans. 2.6

----------
assay: Oral bioavailability in beagle dog at 5 mg/kg followed by activated charcoal administration 0.25 hrs post compound dosing; type: ADME, organism-based, Canis lupus familiaris; details: in vivo
quantity measured: bioavailability (%)
Write the number in % without appending the unit.

Qu. Value lookup for bioavailability; key = COc1ccc(-n2nc(C(N)=O)c3c2C(=O)N(c2ccc(N4CCCCC4=O)cc2)CC3)cc1
Ans. 92

----------
assay: Mean residence time in bile duct-cannulated beagle dog at 1 mg/kg, iv administered as 5 mins infusion; format: ADME, organism-based, Canis lupus familiaris; design: dose 1 mg/kg, route intravenous; conditions: in vivo
quantity measured: MRT
Be sure to follow the number with its unit.

Qu. # input compound: COc1ccc(-n2nc(C(N)=O)c3c2[14C](=O)N(c2ccc(N4CCCCC4=O)cc2)CC3)cc1 ; wanted: its MRT
Ans. 2.6 h

----------
test: Cmax in beagle dog at 5 mg/kg, po; type: ADME, organism-based, Canis lupus familiaris; set-up: dose 5 mg/kg, route oral; conditions: in vivo
quantity measured: Cmax
Number plus unit, in that order.

Qu. Which measured Cmax value corresponds to COc1ccc(-n2nc(C(N)=O)c3c2C(=O)N(c2ccc(N4CCCCC4=O)cc2)CC3)cc1 ?
Ans. 9350 ng/mL
